All values here come from paper PMC12670426.

Biological target: human galectin-3C (Gal-3C, C-terminal CRD of galectin-3) (Homo sapiens, UniProt P17931)
Construct: only the C-terminal domain was used (Gal-3C); 6xHis tag with TEV protease site (N, cleaved yes); made in house; host or cells: BL21 Escherichia coli (pET-15b)
Sequence (P17931 118-248 limits assumed): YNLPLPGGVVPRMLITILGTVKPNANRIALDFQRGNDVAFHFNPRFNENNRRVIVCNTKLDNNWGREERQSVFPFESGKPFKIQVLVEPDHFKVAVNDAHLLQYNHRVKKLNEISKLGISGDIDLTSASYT
Experiment: Competitive fluorescence polarization assay, Gal-3C
Format: binding
Settings: competitive fluorescence polarization; mean ± SD; read-out: Kd Gal-3C
Each entry below lists one item and its recorded pKd value.
pKd field: float, defined as -log10 of concentration (mol/L).

{"COMPOUND": "CO[C@@H]1O[C@H](CO)[C@@H](O[C@@H]2O[C@H](CO)[C@H](O)[C@H](O)[C@H]2O)[C@H](O)[C@H]1O [β-LacOMe, methyl β-lactoside, reference compound]", "SUBJECT_OF_TEST": "human galectin-3C (Gal-3C, C-terminal CRD of galectin-3) (Homo sapiens, UniProt P17931)", "pKd": 3.64}
{"COMPOUND": "CC(=O)N(c1cccc(-c2nnn[nH]2)c1)[C@@H]1O[C@H](CO)[C@@H](O[C@@H]2O[C@H](CO)[C@H](O)[C@H](O)[C@H]2O)[C@H](O)[C@H]1O", "SUBJECT_OF_TEST": "human galectin-3C (Gal-3C, C-terminal CRD of galectin-3) (Homo sapiens, UniProt P17931)", "pKd": 4.31}

Prompt: Give its pKd value. Item: CC(=O)N(c1cccc(-c2ccc(C)o2)c1)[C@@H]1O[C@H](CO)[C@@H](O[C@@H]2O[C@H](CO)[C@H](O)[C@H](O)[C@H]2O)[C@H](O)[C@H]1O
Completion: 3.92

Prompt: Item: CC(C)C(=O)N(c1cccc(C(=O)O)c1)[C@@H]1O[C@H](CO)[C@@H](O[C@@H]2O[C@H](CO)[C@H](O)[C@H](O)[C@H]2O)[C@H](O)[C@H]1O
Completion: 4.41

====

Target: human galectin-1 (Gal-1, full length) (Homo sapiens, UniProt P09382)
Construct: Gal-1 is a prototype galectin consisting of a single CRD and was used in full length; 6xHis tag with TEV protease site (N, cleaved yes); made in house; host or cells: BL21 Escherichia coli (pET-15b)
Sequence (P09382 2-135): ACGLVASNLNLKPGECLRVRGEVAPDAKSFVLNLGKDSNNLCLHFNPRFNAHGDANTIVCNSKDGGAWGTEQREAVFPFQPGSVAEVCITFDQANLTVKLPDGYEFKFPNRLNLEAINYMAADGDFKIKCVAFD
Experiment: Competitive fluorescence polarization assay, Gal-1
Assay type: binding
Conditions: CSV supplement, unrounded mean; read-out: Gal1_IC50_mean_uM
Mark each entry Met if its IC50 sits below 1000 µM, and Not met for all others.

Prompt: Does this compound meet the criterion IC50 < 1000 µM? COc1ccc(N(C(C)=O)[C@@H]2O[C@H](CO)[C@@H](O[C@@H]3O[C@H](CO)[C@H](O)[C@H](O)[C@H]3O)[C@H](O)[C@H]2O)cc1OC
Completion: Met

Prompt: Same lookup for CCOC(=O)c1ccccc1N(C(C)=O)[C@@H]1O[C@H](CO)[C@@H](O[C@@H]2O[C@H](CO)[C@H](O)[C@H](O)[C@H]2O)[C@H](O)[C@H]1O , please.
Completion: Met

Prompt: Next compound up: CC(=O)N(c1cc(Cl)cc(C(=O)O)c1)[C@@H]1O[C@H](CO)[C@@H](O[C@@H]2O[C@H](CO)[C@H](O)[C@H](O)[C@H]2O)[C@H](O)[C@H]1O
Completion: Met

Prompt: Another: CO[C@@H]1O[C@H](CO)[C@@H](O[C@@H]2O[C@H](CO)[C@H](O)[C@H](O)[C@H]2O)[C@H](O)[C@H]1O [β-LacOMe, methyl β-lactoside, reference compound]
Completion: Not met

Prompt: What about this compound? CC(=O)N(c1cccc(-c2nnn[nH]2)c1)[C@@H]1O[C@H](CO)[C@@H](O[C@@H]2O[C@H](CO)[C@H](O)[C@H](O)[C@H]2O)[C@H](O)[C@H]1O
Completion: Not met

====

A collection of molecules and their measured pKd
Target: human galectin-1 (Gal-1, full length) (Homo sapiens)
Construct: Gal-1 is a prototype galectin consisting of a single CRD and was used in full length; 6xHis tag with TEV protease site (N, cleaved yes); made in house; host or cells: BL21 Escherichia coli (pET-15b)
Experiment: Competitive fluorescence polarization assay, Gal-1
Format: binding
Conditions: CSV supplement, unrounded mean; read-out: Gal1_Kd_mean_uM
Hey, just a heads up that pKd is the negative log base 10 of the concentration in molar.

Before answering, review these 5 worked examples.
{"MOLECULE": "CC(=O)N(c1ccc(Cl)c(Cl)c1)[C@@H]1O[C@H](CO)[C@@H](O[C@@H]2O[C@H](CO)[C@H](O)[C@H](O)[C@H]2O)[C@H](O)[C@H]1O", "pKd": 3.42}
{"MOLECULE": "CC(=O)N(c1cccc(CO)c1)[C@@H]1O[C@H](CO)[C@@H](O[C@@H]2O[C@H](CO)[C@H](O)[C@H](O)[C@H]2O)[C@H](O)[C@H]1O", "pKd": 3.27}
{"MOLECULE": "CC(=O)N(c1cc(C(=O)O)cc2[nH]ccc12)[C@@H]1O[C@H](CO)[C@@H](O[C@@H]2O[C@H](CO)[C@H](O)[C@H](O)[C@H]2O)[C@H](O)[C@H]1O", "pKd": 3.07}
{"MOLECULE": "CCOC(=O)c1ccccc1N(C(C)=O)[C@@H]1O[C@H](CO)[C@@H](O[C@@H]2O[C@H](CO)[C@H](O)[C@H](O)[C@H]2O)[C@H](O)[C@H]1O", "pKd": 3.39}
{"MOLECULE": "CC(=O)N(c1cc(Br)cc(C(=O)O)c1)[C@@H]1O[C@H](CO)[C@@H](O[C@@H]2O[C@H](CO)[C@H](O)[C@H](O)[C@H]2O)[C@H](O)[C@H]1O", "pKd": 3.20}

Prompt: What does the record list as pKd for CC(=O)N(c1cccc(-c2cn(C)nn2)c1)[C@@H]1O[C@H](CO)[C@@H](O[C@@H]2O[C@H](CO)[C@H](O)[C@H](O)[C@H]2O)[C@H](O)[C@H]1O ?
Completion: 3.24

Prompt: Now try O=C(O)c1cccc(N(C(=O)c2ccccc2)[C@@H]2O[C@H](CO)[C@@H](O[C@@H]3O[C@H](CO)[C@H](O)[C@H](O)[C@H]3O)[C@H](O)[C@H]2O)c1 .
Completion: 3.08

Prompt: Proceed to O=C(O)c1cccc(N(C(=O)Cc2ccccc2)[C@@H]2O[C@H](CO)[C@@H](O[C@@H]3O[C@H](CO)[C@H](O)[C@H](O)[C@H]3O)[C@H](O)[C@H]2O)c1
Completion: 2.91

Prompt: Item: COC(=O)c1cc(N(C(C)=O)[C@@H]2O[C@H](CO)[C@@H](O[C@@H]3O[C@H](CO)[C@H](O)[C@H](O)[C@H]3O)[C@H](O)[C@H]2O)c2cc[nH]c2c1
Completion: 3.20

Prompt: Thanks! And CC(=O)N(c1cc(Cl)cc(C(=O)O)c1)[C@@H]1O[C@H](CO)[C@@H](O[C@@H]2O[C@H](CO)[C@H](O)[C@H](O)[C@H]2O)[C@H](O)[C@H]1O ?
Completion: 3.19

Prompt: Repeat for the following molecule: CC(=O)N(c1ccc(I)cc1)[C@@H]1O[C@H](CO)[C@@H](O[C@@H]2O[C@H](CO)[C@H](O)[C@H](O)[C@H]2O)[C@H](O)[C@H]1O
Completion: 3.40

====

Assay: Plasma protein binding assay (rapid equilibrium dialysis), human plasma
Assay type: in vitro ADME
Conditions: fraction bound, read-out: plasma protein binding Fb human (converted)
MEASURED_ATTRIBUTE: fraction unbound at 4 h, 10 μM
API note: the answer field is a bare number with no unit suffix.

Prompt: For the compound CC(=O)c1c[nH]c2cc(C(=O)O)cc(N(C(C)=O)[C@@H]3O[C@H](CO)[C@@H](S[C@@H]4O[C@H](CO)[C@H](O)[C@H](n5cc(-c6cccc(F)c6)nn5)[C@H]4O)[C@H](O)[C@H]3O)c12 , what fraction unbound at 4 h, 10 μM is on record?
Completion: 0.66

Prompt: What do you have for CC(=O)N(c1cc(O)cc(C(=O)O)c1)[C@@H]1O[C@H](CO)[C@@H](O[C@@H]2O[C@H](CO)[C@H](O)[C@H](O)[C@H]2O)[C@H](O)[C@H]1O ?
Completion: 0.94

Prompt: Same again, this time with CC(=O)N(c1cc(C(=O)O)cc2[nH]ccc12)[C@@H]1O[C@H](CO)[C@@H](S[C@@H]2O[C@H](CO)[C@H](O)[C@H](n3cc(-c4cccc(F)c4)nn3)[C@H]2O)[C@H](O)[C@H]1O
Completion: 0.55

====

microsomal CLint at 10 μM: recorded values
Assay: Microsomal stability assay, human liver microsomes
Assay type: in vitro ADME
Settings: pooled liver microsomes, pH 7.4, human liver microsomes 0.5 mg/mL, NADPH

Below, 3 compounds whose answers are already recorded.
{"COMPOUND": "OC[C@H]1O[C@@H](S[C@@H]2O[C@H](CO)[C@H](O)[C@H](n3cc(-c4cccc(F)c4)nn3)[C@H]2O)[C@H](O)[C@@H](n2cc(-c3cccc(F)c3)nn2)[C@H]1O [GB0139, reference compound]", "microsomal CLint at 10 μM": "12 µL/min/mg"}
{"COMPOUND": "CC(=O)N(c1cc(O)cc(C(=O)O)c1)[C@@H]1O[C@H](CO)[C@@H](O[C@@H]2O[C@H](CO)[C@H](O)[C@H](O)[C@H]2O)[C@H](O)[C@H]1O", "microsomal CLint at 10 μM": "< 2 µL/min/mg"}
{"COMPOUND": "CC(=O)N(c1cc(C(=O)O)cc2[nH]ccc12)[C@@H]1O[C@H](CO)[C@@H](S[C@@H]2O[C@H](CO)[C@H](O)[C@H](n3cc(-c4cccc(F)c4)nn3)[C@H]2O)[C@H](O)[C@H]1O", "microsomal CLint at 10 μM": "< 2 µL/min/mg"}

Prompt: # microsomal CLint at 10 μM lookup, item CC(=O)c1c[nH]c2cc(C(=O)O)cc(N(C(C)=O)[C@@H]3O[C@H](CO)[C@@H](S[C@@H]4O[C@H](CO)[C@H](O)[C@H](n5cc(-c6cccc(F)c6)nn5)[C@H]4O)[C@H](O)[C@H]3O)c12
Completion: < 2 µL/min/mg

Prompt: And then CC(=O)N(c1cc(C(=O)O)cc2[nH]ccc12)[C@@H]1O[C@H](CO)[C@@H](O[C@@H]2O[C@H](CO)[C@H](O)[C@H](O)[C@H]2O)[C@H](O)[C@H]1O , what is it?
Completion: 3 µL/min/mg
